target: Peroxisome proliferator-activated receptor delta (Homo sapiens)
Sequence (Q03181 whole entry): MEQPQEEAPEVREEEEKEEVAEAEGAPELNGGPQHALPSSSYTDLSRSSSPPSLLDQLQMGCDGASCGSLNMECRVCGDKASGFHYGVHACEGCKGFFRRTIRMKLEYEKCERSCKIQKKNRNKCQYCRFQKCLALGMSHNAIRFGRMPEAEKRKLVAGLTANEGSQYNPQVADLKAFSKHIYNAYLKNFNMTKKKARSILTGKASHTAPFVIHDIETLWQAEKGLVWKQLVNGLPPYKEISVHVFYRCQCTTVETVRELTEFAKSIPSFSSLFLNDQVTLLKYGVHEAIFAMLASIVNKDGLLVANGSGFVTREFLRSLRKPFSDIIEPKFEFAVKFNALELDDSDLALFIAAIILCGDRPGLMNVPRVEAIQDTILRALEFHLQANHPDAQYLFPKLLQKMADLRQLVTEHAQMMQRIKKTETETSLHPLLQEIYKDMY
READOUT_TYPE: EC50 (nM)

O=C(O)Cc1ccc(OCC=C(c2ccc(Br)cc2)c2ccc(Br)cc2)c(Cl)c1 ... 2300
O=C(O)COc1ccc(SCC=C(c2ccc(Br)cc2)c2ccc(Br)cc2)cc1Cl ... 53
O=C(O)CCc1cccc(OCC=C(c2ccc(Br)cc2)c2ccc(Br)cc2)c1 ... 5900
O=C(O)Cc1cccc(OCC=C(c2ccc(Br)cc2)c2ccc(Br)cc2)c1 ... 830
CCO[C@@H](Cc1ccc(OCC=C(c2ccc(Br)cc2)c2ccc(Br)cc2)cc1)C(=O)O ... 540
O=C(O)CCc1ccc(OCC=C(c2ccc(Br)cc2)c2ccc(Br)cc2)cc1 ... 520
O=C(O)Cc1ccc(OCC=C(c2ccc(Br)cc2)c2ccc(Br)cc2)cc1 ... 1100
Cc1cc(SCC=C(c2ccc(Br)cc2)c2ccc(Br)cc2)ccc1OCC(=O)O ... 17

----------
assay: Oral bioavailability in Sprague-Dawley rat at 2.13 mg/kg; format: ADME, organism-based; details: in vivo
READOUT_TYPE: bioavailability

Cc1cc(SCc2sc(-c3ccc(C(F)(F)F)cc3)nc2C)ccc1OCC(=O)O [GW501516] ... 136%

----------
assay: Oral bioavailability in Sprague-Dawley rat at 2.29 mg/kg; type: ADME, organism-based; conditions: in vivo
READOUT_TYPE: bioavailability (%)

CCO[C@@H](Cc1ccc(OCC=C(c2ccc(Br)cc2)c2ccc(Br)cc2)cc1)C(=O)O ... 78

----------
test: Half life in Sprague-Dawley rat at 0.43 mg/kg, po; format: ADME, organism-based; design: dose 0.43 mg/kg, route oral; conditions: in vivo
READOUT_TYPE: half-life (h)

O=C(O)Cc1ccc(OCC=C(c2ccc(Br)cc2)c2ccc(Br)cc2)cc1 ... 7.45

----------
assay: Volume of distribution in Sprague-Dawley rat at 1.09 mg/kg, iv; type: ADME, organism-based; parameters: dose 1.09 mg/kg, route intravenous; conditions: in vivo, read-out: Vss
READOUT_TYPE: Vd (L/kg)

Cc1cc(SCc2sc(-c3ccc(C(F)(F)F)cc3)nc2C)ccc1OCC(=O)O [GW501516] ... 1

----------
experiment: Plasma Cmax in Sprague-Dawley rat at 2.35 mg/kg, po; assay type: ADME, organism-based; set-up: dose 2.35 mg/kg, route oral
READOUT_TYPE: Cmax (ng/mL)

Cc1cc(SCC=C(c2ccc(Br)cc2)c2ccc(Br)cc2)ccc1OCC(=O)O ... 887

----------
molecular target: Peroxisome proliferator-activated receptor alpha (Homo sapiens, UniProt Q07869); test: Activity at human liver PPAR alpha expressed in HEK293 cells by PPAR-GAL4 transactivation assay
pEC50: −log10 of the molar value.
READOUT_TYPE: pEC50

O=C(O)Cc1cccc(OCC=C(c2ccc(Br)cc2)c2ccc(Br)cc2)c1 ... < 5.00
CC(C)(Oc1ccc(C(=O)c2ccc(Cl)cc2)cc1)C(=O)O ... < 5.00
O=C(O)CCc1ccc(OCC=C(c2ccc(Br)cc2)c2ccc(Br)cc2)cc1 ... < 5.00
O=C(O)COc1ccc(SCC=C(c2ccc(Br)cc2)c2ccc(Br)cc2)cc1Cl ... < 5.00
O=C(O)Cc1ccc(OCC=C(c2ccc(Br)cc2)c2ccc(Br)cc2)cc1 ... < 5.00
CCO[C@@H](Cc1ccc(OCC=C(c2ccc(Br)cc2)c2ccc(Br)cc2)cc1)C(=O)O ... 6.41
Cc1cc(SCC=C(c2ccc(Br)cc2)c2ccc(Br)cc2)ccc1OCC(=O)O ... < 5.00

----------
test: Clearance in Sprague-Dawley rat at 0.20 mg/kg, iv; format: ADME, organism-based; design: dose 0.2 mg/kg, route intravenous; details: in vivo, 0.2 mg/kg
# clearance listing for each entry below
READOUT_TYPE: clearance (mL/min/kg)

O=C(O)Cc1ccc(OCC=C(c2ccc(Br)cc2)c2ccc(Br)cc2)c(Cl)c1 ... 7
O=C(O)Cc1ccc(OCC=C(c2ccc(Br)cc2)c2ccc(Br)cc2)cc1 ... 6
O=C(O)CCc1cccc(OCC=C(c2ccc(Br)cc2)c2ccc(Br)cc2)c1 ... 27

----------
assay: Volume of distribution in Sprague-Dawley rat at 1.18 mg/kg, iv; assay type: ADME, organism-based; parameters: dose 1.18 mg/kg, route intravenous; conditions: in vivo, read-out: Vss
READOUT_TYPE: Vd (L/kg)

Cc1cc(SCC=C(c2ccc(Br)cc2)c2ccc(Br)cc2)ccc1OCC(=O)O ... 0.9

----------
The listing below reports EC50 for molecules tested on Peroxisome proliferator-activated receptor gamma (Homo sapiens, UniProt P37231).
Sequence (P37231 whole entry): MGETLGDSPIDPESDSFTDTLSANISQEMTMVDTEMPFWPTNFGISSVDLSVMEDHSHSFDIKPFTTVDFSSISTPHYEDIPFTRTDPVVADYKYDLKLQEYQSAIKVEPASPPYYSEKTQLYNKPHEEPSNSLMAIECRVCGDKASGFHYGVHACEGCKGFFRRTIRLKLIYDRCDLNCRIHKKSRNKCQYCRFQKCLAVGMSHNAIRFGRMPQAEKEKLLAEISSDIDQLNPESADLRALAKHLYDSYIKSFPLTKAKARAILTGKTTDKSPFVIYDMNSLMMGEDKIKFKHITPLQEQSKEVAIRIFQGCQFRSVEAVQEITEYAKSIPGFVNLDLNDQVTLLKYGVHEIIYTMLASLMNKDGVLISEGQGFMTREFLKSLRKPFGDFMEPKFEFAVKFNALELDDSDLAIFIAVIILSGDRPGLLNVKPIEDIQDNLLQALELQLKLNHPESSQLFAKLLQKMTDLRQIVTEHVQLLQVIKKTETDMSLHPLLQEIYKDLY
READOUT_TYPE: EC50

O=C(O)Cc1cccc(OCC=C(c2ccc(Br)cc2)c2ccc(Br)cc2)c1 ... > 10 µM
Cc1cc(SCC=C(c2ccc(Br)cc2)c2ccc(Br)cc2)ccc1OCC(=O)O ... > 10 µM
O=C(O)COc1ccc(SCC=C(c2ccc(Br)cc2)c2ccc(Br)cc2)cc1Cl ... > 10 µM
CCO[C@@H](Cc1ccc(OCC=C(c2ccc(Br)cc2)c2ccc(Br)cc2)cc1)C(=O)O ... 0.59 µM

----------
biological target: Peroxisome proliferator-activated receptor alpha (Homo sapiens) (UniProt Q07869); assay: Activity at human liver PPAR alpha expressed in HEK293 cells by GAL4 transactivation assay relative to NNC61-4655; type: cell-based
Sequence (Q07869 whole entry, the tested form may be a part): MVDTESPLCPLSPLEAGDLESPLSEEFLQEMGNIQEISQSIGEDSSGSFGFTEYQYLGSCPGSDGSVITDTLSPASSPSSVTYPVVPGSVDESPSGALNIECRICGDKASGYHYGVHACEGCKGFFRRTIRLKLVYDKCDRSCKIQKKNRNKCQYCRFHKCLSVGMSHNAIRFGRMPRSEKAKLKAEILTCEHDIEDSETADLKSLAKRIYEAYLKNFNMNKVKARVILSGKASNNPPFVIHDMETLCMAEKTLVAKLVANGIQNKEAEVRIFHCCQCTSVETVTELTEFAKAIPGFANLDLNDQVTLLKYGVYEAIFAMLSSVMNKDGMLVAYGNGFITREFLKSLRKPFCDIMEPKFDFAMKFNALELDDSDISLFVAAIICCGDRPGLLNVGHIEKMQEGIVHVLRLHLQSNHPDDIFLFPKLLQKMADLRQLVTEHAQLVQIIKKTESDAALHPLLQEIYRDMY
READOUT_TYPE: Efficacy

O=C(O)CCc1cccc(OCC=C(c2ccc(Br)cc2)c2ccc(Br)cc2)c1 ... < 10%
CCO[C@@H](Cc1ccc(OCC=C(c2ccc(Br)cc2)c2ccc(Br)cc2)cc1)C(=O)O ... 93%
O=C(O)Cc1cccc(OCC=C(c2ccc(Br)cc2)c2ccc(Br)cc2)c1 ... > 19%
CN(CCOc1ccc(CC2SC(=O)NC2=O)cc1)c1ccccn1 (stereo unspecified) ... > 24%
Cc1cc(SCc2sc(-c3ccc(C(F)(F)F)cc3)nc2C)ccc1OCC(=O)O ... 68%
O=C(O)Cc1ccc(OCC=C(c2ccc(Br)cc2)c2ccc(Br)cc2)c(Cl)c1 ... < 10%
O=C(O)COc1ccc(SCC=C(c2ccc(Br)cc2)c2ccc(Br)cc2)cc1Cl ... > 12%
Cc1cc(SCC=C(c2ccc(Br)cc2)c2ccc(Br)cc2)ccc1OCC(=O)O ... > 22%
O=C(O)Cc1ccc(OCC=C(c2ccc(Br)cc2)c2ccc(Br)cc2)cc1 ... > 14%
CC(C)(Oc1ccc(C(=O)c2ccc(Cl)cc2)cc1)C(=O)O ... > 94%
O=C(O)CCc1ccc(OCC=C(c2ccc(Br)cc2)c2ccc(Br)cc2)cc1 ... > 12%

----------
assay: Oral bioavailability in Sprague-Dawley rat at 0.45 mg/kg; format: ADME, organism-based; conditions: in vivo
READOUT_TYPE: bioavailability (%)

O=C(O)Cc1ccc(OCC=C(c2ccc(Br)cc2)c2ccc(Br)cc2)c(Cl)c1 ... 130

----------
test: Volume of distribution in Sprague-Dawley rat at 0.20 mg/kg, iv; type: ADME, organism-based; set-up: dose 0.2 mg/kg, route intravenous; details: in vivo, 0.2 mg/kg, read-out: Vss
The entries below are paired with their reported Vd.
READOUT_TYPE: Vd (L/kg)

O=C(O)Cc1ccc(OCC=C(c2ccc(Br)cc2)c2ccc(Br)cc2)cc1 ... 1.4
O=C(O)Cc1ccc(OCC=C(c2ccc(Br)cc2)c2ccc(Br)cc2)c(Cl)c1 ... 1.4
O=C(O)CCc1cccc(OCC=C(c2ccc(Br)cc2)c2ccc(Br)cc2)c1 ... 5.3

----------
assay: Half life in Sprague-Dawley rat at 2.35 mg/kg, po; assay type: ADME, organism-based; design: dose 2.35 mg/kg, route oral; conditions: in vivo
READOUT_TYPE: half-life (h)

Cc1cc(SCC=C(c2ccc(Br)cc2)c2ccc(Br)cc2)ccc1OCC(=O)O ... 2.52

----------
assay: Plasma Cmax in Sprague-Dawley rat at 0.43 mg/kg, po; format: ADME, organism-based; design: dose 0.43 mg/kg, route oral
READOUT_TYPE: Cmax (ng/mL)

O=C(O)Cc1ccc(OCC=C(c2ccc(Br)cc2)c2ccc(Br)cc2)cc1 ... 252

----------
test: Clearance in Sprague-Dawley rat at 1.18 mg/kg, iv; type: ADME, organism-based; set-up: dose 1.18 mg/kg, route intravenous; conditions: in vivo
READOUT_TYPE: clearance

Cc1cc(SCC=C(c2ccc(Br)cc2)c2ccc(Br)cc2)ccc1OCC(=O)O ... 10 mL/min/kg

----------
assay: Plasma Cmax in Sprague-Dawley rat at 0.45 mg/kg, po; assay type: ADME, organism-based; design: dose 0.45 mg/kg, route oral
Entries and their measured Cmax follow.
READOUT_TYPE: Cmax

O=C(O)Cc1ccc(OCC=C(c2ccc(Br)cc2)c2ccc(Br)cc2)c(Cl)c1 ... 241 ng/mL
O=C(O)CCc1cccc(OCC=C(c2ccc(Br)cc2)c2ccc(Br)cc2)c1 ... 51 ng/mL
O=C(O)Cc1cccc(OCC=C(c2ccc(Br)cc2)c2ccc(Br)cc2)c1 ... 419 ng/mL
